Origin of values: the RNAGym collection of RNA variant scans (doi:10.7554/elife.80360)

# key: entry, value: self-cleavage
B1: CPEB3 Ribozyme (parent)
chain: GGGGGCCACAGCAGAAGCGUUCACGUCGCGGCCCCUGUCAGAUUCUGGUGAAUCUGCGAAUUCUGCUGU

- Variants of: B1
- ASSAY NOTES: self-cleavage, relative activity (ratio to wild type); higher = more cleavage; co-transcriptional

| MUTATION DESCRIPTOR | RESULT |
| --- | --- |
| G30A U36A | 0.196 |
| U36A U67G | 0.181 |
| G5C G25C | 0.0981 |
| A52C C54G | 0.562 |
| C45G A59G | 0.969 |

Now take the following variant into account.
# input Please list self-cleavage recorded for the variant G2U A52C
# output 0.0652
